assay: PET hydrolysis product formed (TPA+MHET+BHET, UV-Vis) per mg enzyme (mmol/mg enzyme); higher = more PET depolymerisation activity; extreme values may be limits of the assay; conditions: PET substrate: aFilm; 70 °C; pH 4.5; 2 h
Each record here notes measured PET hydrolysis product formed.
Give the value as a plain number.

For orientation, consider the following solved cases.
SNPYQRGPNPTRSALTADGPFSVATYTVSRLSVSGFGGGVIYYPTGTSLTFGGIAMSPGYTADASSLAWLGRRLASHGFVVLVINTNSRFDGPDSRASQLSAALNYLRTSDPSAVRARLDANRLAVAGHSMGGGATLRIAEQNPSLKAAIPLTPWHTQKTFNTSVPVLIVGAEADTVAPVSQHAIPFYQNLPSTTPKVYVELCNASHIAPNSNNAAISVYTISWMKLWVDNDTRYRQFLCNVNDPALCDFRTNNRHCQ [LCC-ICCG DAQI] = 0
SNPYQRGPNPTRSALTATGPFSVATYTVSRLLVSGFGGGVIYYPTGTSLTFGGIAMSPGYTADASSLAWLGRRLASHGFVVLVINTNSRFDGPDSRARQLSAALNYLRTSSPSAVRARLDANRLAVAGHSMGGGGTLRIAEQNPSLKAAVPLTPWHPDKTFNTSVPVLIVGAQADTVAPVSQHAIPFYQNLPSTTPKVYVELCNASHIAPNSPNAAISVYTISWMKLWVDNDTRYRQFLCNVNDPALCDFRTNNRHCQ [LCC-ICCG I6M] = 0

Exercise: // PET hydrolysis product formed lookup, key: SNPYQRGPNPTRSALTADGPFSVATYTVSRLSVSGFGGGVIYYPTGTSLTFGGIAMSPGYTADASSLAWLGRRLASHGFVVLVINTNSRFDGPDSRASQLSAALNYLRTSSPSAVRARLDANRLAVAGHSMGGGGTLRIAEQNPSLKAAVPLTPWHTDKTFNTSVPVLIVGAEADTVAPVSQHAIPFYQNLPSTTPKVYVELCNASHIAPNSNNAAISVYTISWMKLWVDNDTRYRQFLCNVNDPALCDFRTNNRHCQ [LCC-ICCG]
Key: 0

###

Each record here notes measured MHET released.
test: MHET released, HPLC; higher = more MHET released; extreme values may be limits of the assay; conditions: PET substrate: cryPow; 60 °C; pH 8.5; 24 h
Respond with the figure and its unit, in that order.

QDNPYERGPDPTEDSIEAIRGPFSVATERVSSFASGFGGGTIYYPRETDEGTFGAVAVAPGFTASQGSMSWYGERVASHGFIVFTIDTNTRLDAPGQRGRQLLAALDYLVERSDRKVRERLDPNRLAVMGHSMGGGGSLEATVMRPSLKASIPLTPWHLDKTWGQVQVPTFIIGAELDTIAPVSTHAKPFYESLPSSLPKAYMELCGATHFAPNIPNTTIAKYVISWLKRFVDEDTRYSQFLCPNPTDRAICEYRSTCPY [Cut190*SS] = 0.171 mM

--- query ---
Exercise: // MHET released lookup, key: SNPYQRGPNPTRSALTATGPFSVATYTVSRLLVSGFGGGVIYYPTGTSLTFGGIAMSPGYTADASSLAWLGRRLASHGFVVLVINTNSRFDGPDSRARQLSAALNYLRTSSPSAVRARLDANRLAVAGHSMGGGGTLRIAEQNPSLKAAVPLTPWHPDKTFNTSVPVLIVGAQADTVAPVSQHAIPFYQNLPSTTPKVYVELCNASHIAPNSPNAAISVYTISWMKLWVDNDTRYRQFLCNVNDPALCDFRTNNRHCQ [LCC-ICCG I6M]
Key: 0.113 mM

Data provenance: the supplement of paper PMC11196671
